ASSAY NOTES: in vitro
STUDY CONDITIONS: rat, liver microsomes
Description: Hepatic extraction ratio in rat liver microsomes at 1 uM incubated for 45 mins in presence of NADPH by LC-MS/MS analysis
MEASURE NAME: hepatic extraction ratio at 0.75 h, 1 µM
Answer with a number only.

Given the compound COc1ccn2c(C(C)=O)cc(C(=O)Nc3cc(C(C)O)cc(-c4cnn(C5CC5)c4)c3F)c2c1 (centres undefined) , what is its reported hepatic extraction ratio at 0.75 h, 1 µM?
0.495

Given the compound Cc1ncc2n1-c1ccc(Cl)cc1C(c1ccccc1F)=NC2 [MIDAZOLAM] , what is its reported hepatic extraction ratio at 0.75 h, 1 µM?
0.961

Given the compound `COc1ccc2c(c1)c(C(=O)Nc1cc(C(=O)O)cc(-c3cnn(C)c3)c1F)cn2C(C)=O` , what is its reported hepatic extraction ratio at 0.75 h, 1 µM?
0.774

Given the compound `CC(=O)c1cc(C(=O)Nc2cc(CO)cc(-c3cnn(C4CC4)c3)c2F)c2cc(OC(=O)N(C)C)ccn12` , what is its reported hepatic extraction ratio at 0.75 h, 1 µM?
0.753

The origin of these recorded values is ChEMBL document CHEMBL5154675.
